Target: T1, CXCR4 (CXCR4-expressing HPB-ALL cells) (Homo sapiens, UniProt P61073)
T1 construct: endogenous in cells; host or cells: HPB-ALL (human T cell leukemia)
T1 sequence (P61073 whole entry): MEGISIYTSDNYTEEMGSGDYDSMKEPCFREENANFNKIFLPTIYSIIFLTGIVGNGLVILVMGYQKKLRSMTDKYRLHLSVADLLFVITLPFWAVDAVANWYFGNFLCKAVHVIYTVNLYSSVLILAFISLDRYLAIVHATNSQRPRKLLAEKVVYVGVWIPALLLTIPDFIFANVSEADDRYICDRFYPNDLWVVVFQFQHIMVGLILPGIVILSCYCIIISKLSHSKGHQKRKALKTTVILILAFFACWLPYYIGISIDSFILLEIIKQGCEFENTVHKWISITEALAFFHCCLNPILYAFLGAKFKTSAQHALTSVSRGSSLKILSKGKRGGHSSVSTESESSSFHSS
Assay: Flow cytometry binding of humanized 3G10 Fabs to HPB-ALL cells (Example 2)
Conditions: Fab 0.25 μg/ml
measuredMetric: MFI 0.25 μg/ml
Give the value as a plain number.

[
  {
    "molecule": "h3G10.A57 VH/h3G10.B12 VL: Fab; VH SEQ ID NO:23, VL B12 (probably B12A, SEQ ID NO:61) (antibody, V domains shown, Fab) VH: EVQLVESGGGLVQPGGSLRLSCAASGFTFSDYYMSWVRQAPGKGLEWVGFIRHKANFYTTEYSTSVKGRFTISRDDSKNSLYLQMNSLKTEDTAVYYCARDLPGFAYWGQGTLVTVSS VL: DIVMTQSPDSLAVSLGERATINCKSSQSLFNSRTRKNYLLWYQQKPGQPPKLLIYWASARESGVPDRFSGSGSGTDFTLTISSLQAEDVAVYYCKQSFRLRTFGGGTKVEIK",
    "numericValue": 2921
  },
  {
    "molecule": "h3G10.B44 VH/h3G10.A11 VL: Fab; VH SEQ ID NO:25, VL A11 (probably A11A, SEQ ID NO:51) (antibody, V domains shown, Fab) VH: EVQLVESGGGLVQPGGSLRLSCAASGFTFSDYYMSWVRQAPGKGLEWVSFIRHKANFYTTEYSTSVKGRFTISRDNSKNTLYLQMNSLRAEDTAVYYCAKDLPGFAYWGQGTLVTVSS VL: DIVMTQSPDSLAVSLGERATINCKSAQSLFNSRTRKNYLAWYQQKPGQPPKLLIYWASARESGVPDRFSGSGSGTDFTLTISSLQAEDVAVYYCKQSFRLRTFGGGTKVEIK",
    "numericValue": 3792
  },
  {
    "molecule": "h3G10.B44 VH/h3G10.2.72 VL: Fab; VH SEQ ID NO:25, VL SEQ ID NO:49 (antibody, V domains shown, Fab) VH: EVQLVESGGGLVQPGGSLRLSCAASGFTFSDYYMSWVRQAPGKGLEWVSFIRHKANFYTTEYSTSVKGRFTISRDNSKNTLYLQMNSLRAEDTAVYYCAKDLPGFAYWGQGTLVTVSS VL: DIVMTQSPDSLAVSLGERATINCKSSQSLFNSRTRKNYLAWYQQKPGQPPKLLIYWASARESGVPDRFSGSGSGTDFTLTISSLQAEDVAVYYCKQSFRLRTFGGGTKVEIK",
    "numericValue": 4513
  }
]

Note: attention shifts to another entry.
Entry h3G10.A57 VH/h3G10.A11 VL: Fab; VH SEQ ID NO:23, VL A11 (probably A11A, SEQ ID NO:51) (antibody, V domains shown, Fab) VH: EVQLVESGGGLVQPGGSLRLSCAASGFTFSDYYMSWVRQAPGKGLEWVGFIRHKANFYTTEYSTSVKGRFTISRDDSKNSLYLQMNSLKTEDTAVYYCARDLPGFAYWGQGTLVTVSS VL: DIVMTQSPDSLAVSLGERATINCKSAQSLFNSRTRKNYLAWYQQKPGQPPKLLIYWASARESGVPDRFSGSGSGTDFTLTISSLQAEDVAVYYCKQSFRLRTFGGGTKVEIK : reported MFI 0.25 μg/ml = ?
1251

Where these numbers come from: patent US10927178B2
